# Tested on: VCaP cells
# ASSAY DETAILS: Inhibition of VCaP cell proliferation (WST-8)
# Assay type: cell-based
# TEST SETTINGS: Homo sapiens, 168 hours
# IC50 per record follows
Give your result in nM as a bare value.

COMPOUND	SUBJECT OF TEST	IC50 / nM
C[C@H]1CC2(CCN(c3ccc(N4CCC(CN5CCC6(CC5)COc5ccc7c(c56)n(C)c(=O)n7C5CCC(=O)NC5=O)CC4)cc3)CC2)CN1c1ccc(C#N)c(Cl)c1 (stereo partly drawn) [A-P-26]	VCaP cells	34

// moving on: another record for IC50
COc1cc(O[C@H]2C(C)(C)[C@H](NC(=O)c3ccc(N4CCC(CN5CC6(CCC7(CC6)COc6c7ccc7c6CN(C6CCC(=O)NC6=O)C7=O)C5)CC4)cc3)C2(C)C)ccc1C#N (relative stereo) [A-P-3] has a reported IC50 of 0.017

====

# SUBJECT OF TEST: SMARCA2 (Homo sapiens)
# Sequence (P51531 whole entry): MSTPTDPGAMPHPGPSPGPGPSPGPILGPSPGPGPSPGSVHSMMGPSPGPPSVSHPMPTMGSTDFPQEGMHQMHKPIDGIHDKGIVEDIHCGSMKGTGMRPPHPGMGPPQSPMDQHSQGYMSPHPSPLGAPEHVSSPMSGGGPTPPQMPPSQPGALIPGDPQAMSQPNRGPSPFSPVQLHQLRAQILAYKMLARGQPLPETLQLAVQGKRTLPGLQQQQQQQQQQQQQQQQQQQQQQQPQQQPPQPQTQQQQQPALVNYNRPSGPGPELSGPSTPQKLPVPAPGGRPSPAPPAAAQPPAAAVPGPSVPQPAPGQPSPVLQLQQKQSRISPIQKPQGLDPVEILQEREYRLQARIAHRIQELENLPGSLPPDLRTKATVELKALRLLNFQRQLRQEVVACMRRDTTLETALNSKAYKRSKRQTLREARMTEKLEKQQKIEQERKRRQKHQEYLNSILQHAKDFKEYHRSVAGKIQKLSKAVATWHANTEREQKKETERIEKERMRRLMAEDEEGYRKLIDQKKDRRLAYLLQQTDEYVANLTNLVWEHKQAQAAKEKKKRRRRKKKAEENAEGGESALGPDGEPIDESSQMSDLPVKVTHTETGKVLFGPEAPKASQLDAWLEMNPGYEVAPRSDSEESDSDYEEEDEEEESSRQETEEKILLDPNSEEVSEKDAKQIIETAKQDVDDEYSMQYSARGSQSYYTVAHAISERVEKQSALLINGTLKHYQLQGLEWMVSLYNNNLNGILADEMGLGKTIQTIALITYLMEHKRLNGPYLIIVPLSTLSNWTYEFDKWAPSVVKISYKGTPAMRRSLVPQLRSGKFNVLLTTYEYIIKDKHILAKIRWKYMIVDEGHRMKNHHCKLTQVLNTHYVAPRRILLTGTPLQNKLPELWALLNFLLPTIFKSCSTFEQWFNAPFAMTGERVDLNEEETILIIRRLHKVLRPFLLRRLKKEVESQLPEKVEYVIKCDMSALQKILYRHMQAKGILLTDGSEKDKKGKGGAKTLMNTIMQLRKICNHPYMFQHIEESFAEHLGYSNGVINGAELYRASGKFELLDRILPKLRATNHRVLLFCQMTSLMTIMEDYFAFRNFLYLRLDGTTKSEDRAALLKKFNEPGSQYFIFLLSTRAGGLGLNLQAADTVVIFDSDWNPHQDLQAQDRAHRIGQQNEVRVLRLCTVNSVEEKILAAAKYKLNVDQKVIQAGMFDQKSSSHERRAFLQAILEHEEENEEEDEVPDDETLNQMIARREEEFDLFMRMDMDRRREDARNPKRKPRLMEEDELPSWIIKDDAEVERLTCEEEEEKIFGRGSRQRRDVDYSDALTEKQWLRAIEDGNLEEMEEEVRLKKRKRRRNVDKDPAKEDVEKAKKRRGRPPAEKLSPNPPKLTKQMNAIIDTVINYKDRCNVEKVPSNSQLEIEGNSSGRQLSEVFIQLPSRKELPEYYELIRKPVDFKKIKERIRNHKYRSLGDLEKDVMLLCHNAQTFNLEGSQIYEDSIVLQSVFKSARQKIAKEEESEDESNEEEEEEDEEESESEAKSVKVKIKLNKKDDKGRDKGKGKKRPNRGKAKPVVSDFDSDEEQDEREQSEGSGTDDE
# ASSAY DETAILS: SMARCA2 degradation in SW1573 cells (Western blot)
# Type: cell-based
# Set-up: endogenous in cells; host or cells: SW1573
# TEST SETTINGS: 80 nM, 24 hours
MEASUREMENT KIND: Degradation rate of SMARCA2 in SW1573 cells (%)
All answers are understood in %, so give the number only.

Illustrative cases are given below, each with its answer.
COMPOUND	REPORTED
Nc1nnc(-c2ccccc2O)cc1C#CC1CCC2(CC1)CC(N1CCC3(CC1)COc1cc(C(=O)N[C@H]4CCC(=O)NC4=O)c(F)cc13)C2 (some centres unmarked)	61
Nc1nnc(-c2ccccc2O)cc1C#CC1CCC2(CC1)CC(N1CCC3(CCc4cc(F)c(C(=O)N[C@H]5CCC(=O)NC5=O)cc4O3)CC1)C2 (some centres unmarked)	32
Cn1c(=O)n(C2CCC(=O)NC2=O)c2ccc3c(c21)OCC31CCN(C[C@H]2CC[C@H](Cn3cc(-c4cc(-c5ccccc5O)nnc4N)cn3)CC2)CC1 (some centres unmarked)	99
Nc1nnc(-c2ccccc2O)cc1C#CC1CCC2(CC1)CC(N1CCN3c4ccc(C(=O)N[C@H]5CCC(=O)NC5=O)cc4OC[C@@H]3C1)C2 (some centres unmarked)	76

Proceed to the following item.
Query Cn1c(=O)n(C2CCC(=O)NC2=O)c2cc3c(cc21)OC1(CC3)CCN(C2CC3(CCC(C#Cc4cc(-c5ccccc5O)nnc4N)CC3)C2)CC1 (centres unmarked) yields Degradation rate of SMARCA2 in SW1573 cells (%) of 96

====

# System: LNCaP cells
# ASSAY DETAILS: Inhibition of LNCaP cell proliferation (WST-8)
# Assay type: cell-based
# TEST SETTINGS: Homo sapiens, LNCaP FGC cells, 96 hours
MEASUREMENT KIND: log10 IC50 (log10 of the value in µM)
Scale type: logarithmic (base 10). Underlying IC50 unit: µM.

COMPOUND	log10 IC50
C[C@H]1CC2(CCN(c3ccc(N4CCC(CN5CCC6(CCc7cc(C(=O)N[C@H]8CCC(=O)NC8=O)c(F)cc7O6)CC5)CC4)cc3)CC2)CN1c1ccc(C#N)c(Cl)c1	-0.72
COc1cc2c(cc1C(=O)N[C@H]1CCC(=O)NC1=O)OC[C@H]1CN(CC3CCN(C(=O)c4ccc(N5CCC6(CC5)C[C@H](C)N(c5ccc(C#N)c(Cl)c5)C6)cc4)CC3)CCN21	0.45
COc1cc(O[C@H]2C(C)(C)[C@H](NC(=O)c3ccc(N4CCC(CN5CCN6c7ccc(C(=O)N[C@H]8CCC(=O)NC8=O)cc7OC[C@H]6C5)CC4)cc3)C2(C)C)ccc1C#N	-0.30
CC1(C)[C@H](NC(=O)c2ccc(N3CCC(CN4CCC5(CCc6cc(C(=O)N[C@H]7CCC(=O)NC7=O)c(F)cc6O5)CC4)CC3)nc2)C(C)(C)[C@H]1Oc1ccc(C#N)c(Cl)c1	-0.74
Cn1c(=O)n(C2CCC(=O)NC2=O)c2ccc3c(c21)OCC31CCN(C2CCN(c3ccc(C(=O)N[C@H]4CC[C@H](Oc5ccc(C#N)c(Cl)c5)CC4)nn3)CC2)CC1 (stereo partly shown)	1.35
C[C@H]1CC2(CCN(c3ccc(C(=O)N4CCC(CN5CCC6(CCc7cc(C(=O)N[C@H]8CCC(=O)NC8=O)c(F)cc7O6)CC5)CC4)cc3)CC2)CN1c1ccc(C#N)c(Cl)c1	-0.55

Form field log10 IC50, entry N#Cc1ccc(O[C@H]2CC[C@H](NC(=O)c3ccc(N4CCC(N5CCC6(CC5)CCC5(CC6)COc6c5ccc5c6CN(C6CCC(=O)NC6=O)C5=O)CC4)nn3)CC2)cc1Cl (relative stereo) : 0.27

# compound N#Cc1cc2c(cc1Cl)OCC1(CCN(C(=O)c3ccc(N4CCC(CN5CCC6(CCc7cc(C(=O)N[C@H]8CCC(=O)NC8=O)c(F)cc7O6)CC5)CC4)cc3)CC1)O2 ; its log10 IC50 = -0.62

Quick note, log10 IC50 for COc1cc2c(cc1C(=O)N[C@H]1CCC(=O)NC1=O)C1(CCN(CC3CCN(c4ccc(N5CCC6(CC5)C[C@H](C)N(c5ccc(C#N)c(Cl)c5)C6)cc4)CC3)CC1)CO2 landed at 1.16

====

Measured Dmax at 0.001 µM of individual entries
# SUBJECT OF TEST: SMARCA4 (Homo sapiens)
# Sequence (P51532 whole entry): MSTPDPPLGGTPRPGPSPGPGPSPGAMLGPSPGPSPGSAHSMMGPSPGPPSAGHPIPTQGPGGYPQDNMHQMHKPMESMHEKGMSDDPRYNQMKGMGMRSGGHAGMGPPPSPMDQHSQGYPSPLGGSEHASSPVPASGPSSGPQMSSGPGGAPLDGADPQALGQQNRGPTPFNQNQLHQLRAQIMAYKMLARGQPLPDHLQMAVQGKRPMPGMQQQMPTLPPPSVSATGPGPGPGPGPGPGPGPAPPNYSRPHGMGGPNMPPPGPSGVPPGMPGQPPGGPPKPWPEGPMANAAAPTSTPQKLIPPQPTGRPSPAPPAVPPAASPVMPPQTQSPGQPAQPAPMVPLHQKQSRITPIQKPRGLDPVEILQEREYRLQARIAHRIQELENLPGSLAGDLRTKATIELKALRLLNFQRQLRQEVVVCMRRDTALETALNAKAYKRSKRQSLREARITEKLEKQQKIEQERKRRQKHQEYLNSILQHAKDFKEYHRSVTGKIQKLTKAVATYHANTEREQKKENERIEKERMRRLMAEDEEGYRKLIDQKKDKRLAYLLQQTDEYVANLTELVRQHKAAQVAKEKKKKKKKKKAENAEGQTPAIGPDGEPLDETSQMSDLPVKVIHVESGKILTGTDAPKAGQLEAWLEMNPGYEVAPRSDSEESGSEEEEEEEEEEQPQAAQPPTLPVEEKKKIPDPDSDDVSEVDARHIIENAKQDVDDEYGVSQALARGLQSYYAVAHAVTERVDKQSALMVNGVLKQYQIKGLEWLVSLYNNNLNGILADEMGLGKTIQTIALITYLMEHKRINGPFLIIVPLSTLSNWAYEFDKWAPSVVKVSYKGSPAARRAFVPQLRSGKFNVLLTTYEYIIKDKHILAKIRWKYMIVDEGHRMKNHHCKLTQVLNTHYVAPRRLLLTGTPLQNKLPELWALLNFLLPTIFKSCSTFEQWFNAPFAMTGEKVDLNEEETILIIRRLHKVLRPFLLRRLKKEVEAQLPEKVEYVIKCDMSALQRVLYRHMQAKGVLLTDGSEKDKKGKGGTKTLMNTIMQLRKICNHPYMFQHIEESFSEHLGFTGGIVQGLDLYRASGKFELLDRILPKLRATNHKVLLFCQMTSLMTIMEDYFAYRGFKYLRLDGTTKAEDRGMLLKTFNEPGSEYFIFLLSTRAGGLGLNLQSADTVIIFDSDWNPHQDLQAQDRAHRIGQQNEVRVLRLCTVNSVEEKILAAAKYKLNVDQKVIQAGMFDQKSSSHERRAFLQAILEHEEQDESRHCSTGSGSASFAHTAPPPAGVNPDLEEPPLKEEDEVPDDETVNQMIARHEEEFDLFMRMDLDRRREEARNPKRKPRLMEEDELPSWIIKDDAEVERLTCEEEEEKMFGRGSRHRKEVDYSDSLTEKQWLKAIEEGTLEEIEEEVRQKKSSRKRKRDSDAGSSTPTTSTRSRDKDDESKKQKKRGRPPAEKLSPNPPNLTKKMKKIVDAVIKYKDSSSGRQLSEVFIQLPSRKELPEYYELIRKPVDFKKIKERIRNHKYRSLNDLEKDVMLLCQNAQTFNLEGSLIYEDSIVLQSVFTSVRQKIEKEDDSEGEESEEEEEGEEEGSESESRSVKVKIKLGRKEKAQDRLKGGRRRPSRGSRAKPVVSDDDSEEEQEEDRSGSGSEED
# ASSAY DETAILS: SMARCA4 degradation in HeLa cells (Western blot)
# Format: cell-based
# Design: endogenous in cells
# TEST SETTINGS: 1 nM, 4 hours, read-out: Degradation rate of SMARCA4 in HeLa cells (%)
Form entry: value (%) — number only.

COMPOUND	Dmax at 0.001 µM / %
Cn1c(=O)n(C2CCC(=O)NC2=O)c2cc3c(cc21)C1(CCN(C(=O)[C@H]2CC[C@H](Cn4cc(-c5cc(-c6ccccc6O)nnc5N)cn4)CC2)CC1)CO3 (stereo partly drawn)	38
Nc1nnc(-c2ccccc2O)cc1C#CC1CCC2(CC1)CC(N1CCC3(CC1)Cc1ccc(NC4CCC(=O)NC4=O)cc1O3)C2 (stereo not drawn)	6

Proceeding to the next compound to report its Dmax at 0.001 µM.
Dmax at 0.001 µM for Nc1nnc(-c2ccccc2O)cc1C#CC1CCC2(CC1)CC(N1CCC3(CC1)CCC1(CC3)COc3c1ccc1c3CN(C3CCC(=O)NC3=O)C1=O)C2 (stereo not drawn) is 92

====

# System: LNCaP cells
# ASSAY DETAILS: Inhibition of LNCaP cell proliferation (WST-8)
# Format: cell-based
# TEST SETTINGS: Homo sapiens, LNCaP FGC cells, 96 hours
MEASUREMENT KIND: IC50 (µM)
# output: bare number, implied unit µM

Use the examples below as a reference point.
COMPOUND	IC50 / µM
COc1cc(O[C@H]2C(C)(C)[C@H](NC(=O)c3ccc(N4CCC(CN5CCC6(CC5)COc5c6ccc6c5n(C)c(=O)n6C5CCC(=O)NC5=O)CC4)cc3)C2(C)C)ccc1C#N (stereo partly drawn) [A-P-28]	20.7
C[C@H]1CC2(CCN(c3ccc(N4CCC(CN5CCC6(CC5)CCC5(CC6)COc6c5ccc5c6CN(C6CCC(=O)NC6=O)C5=O)CC4)cc3)CC2)CN1c1ccc(C#N)c(Cl)c1 (stereo partly drawn) [A-P-8]	0.2

We now examine a further compound.
In plain terms, C[C@H]1CC2(CCN(c3ccc(N4CCC(CN5CCN6c7ccc(C(=O)N[C@H]8CCC(=O)NC8=O)c(F)c7OC[C@H]6C5)CC4)cc3)CC2)CN1c1ccc(C#N)c(Cl)c1 [A-P-61] has a documented IC50 of 0.21

====

# SUBJECT OF TEST: AR protein (Homo sapiens)
# Construct: host or cells: VCaP
# Sequence (P10275 whole entry): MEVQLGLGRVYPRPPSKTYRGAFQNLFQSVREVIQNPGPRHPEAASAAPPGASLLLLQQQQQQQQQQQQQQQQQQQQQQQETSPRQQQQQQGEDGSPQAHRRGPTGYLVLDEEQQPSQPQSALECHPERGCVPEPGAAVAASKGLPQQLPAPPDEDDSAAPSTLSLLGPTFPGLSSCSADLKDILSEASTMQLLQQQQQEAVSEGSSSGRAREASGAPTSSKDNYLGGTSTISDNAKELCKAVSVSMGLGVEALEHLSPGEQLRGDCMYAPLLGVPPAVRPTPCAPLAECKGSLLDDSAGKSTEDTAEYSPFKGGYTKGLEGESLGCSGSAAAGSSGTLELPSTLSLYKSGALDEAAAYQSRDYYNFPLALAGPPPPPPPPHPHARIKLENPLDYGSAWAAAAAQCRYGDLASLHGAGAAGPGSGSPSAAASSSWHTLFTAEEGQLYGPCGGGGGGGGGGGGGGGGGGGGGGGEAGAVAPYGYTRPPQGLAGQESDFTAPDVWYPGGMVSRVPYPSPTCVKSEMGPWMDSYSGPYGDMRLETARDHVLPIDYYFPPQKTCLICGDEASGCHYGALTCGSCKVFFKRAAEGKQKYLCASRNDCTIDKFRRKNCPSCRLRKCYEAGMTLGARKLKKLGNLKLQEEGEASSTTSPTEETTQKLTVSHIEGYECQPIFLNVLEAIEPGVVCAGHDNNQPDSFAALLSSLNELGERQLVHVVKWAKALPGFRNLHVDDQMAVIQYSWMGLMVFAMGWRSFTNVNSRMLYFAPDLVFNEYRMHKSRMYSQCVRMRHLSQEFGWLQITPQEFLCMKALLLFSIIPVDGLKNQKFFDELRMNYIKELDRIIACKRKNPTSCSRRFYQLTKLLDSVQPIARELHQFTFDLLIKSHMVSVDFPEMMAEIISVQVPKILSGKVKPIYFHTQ
# ASSAY DETAILS: AR protein degradation in VCaP cells (Western blot)
# Format: cell-based
# TEST SETTINGS: 5 nM, 8h
# From the text: The degradation activity of the compounds disclosed in the present invention on AR protein in VCaP cells (cell source: ATCC) The AR-positive human prostate cancer cells VCaP cultured in DMEM (GiBco catalog number 11995-065) containing 10% FBS (Hyclone catalog number SH30406.05) was inoculated in a six-well microplate (Thermo catalog number 140675) at a concentration of 3×10^5 cells/ well. […] GAPDH protein bands were also detected for each sample as the reference. […]
# Lookup of reported Degradation rate of AR protein in VCaP cells keyed by entry
Dear colleague, please return just the value in %, with no unit written.

COMPOUND	SUBJECT OF TEST	REPORTED
COc1cc(O[C@H]2C(C)(C)[C@H](NC(=O)c3ccc(N4CCC(CN5CCC6(CCc7cc(C(=O)N[C@H]8CCC(=O)NC8=O)c(F)cc7O6)CC5)(OC)CC4)cc3)C2(C)C)ccc1C#N	AR protein (Homo sapiens)	45

Record summary for COc1cc(O[C@H]2CC[C@H](NC(=O)c3ccc(N4CCC(CN5CCC6(CC5)COc5cc7c(cc56)n(C)c(=O)n7C5CCC(=O)NC5=O)CC4)nn3)CC2)ccc1C#N (relative stereo) : reported Degradation rate of AR protein in VCaP cells = 75

Entry COc1cc(O[C@H]2C(C)(C)[C@H](NC(=O)c3ccc(N4CCC(C)(CN5CCC6(CC5)COc5c6ccc(C(=O)N[C@H]6CCC(=O)NC6=O)c5F)CC4)cc3)C2(C)C)ccc1C#N — recorded Degradation rate of AR protein in VCaP cells = 34

Field Degradation rate of AR protein in VCaP cells (entry CC1(C)[C@H](NC(=O)c2ccc(N3CCC(CN4CCC5(CCc6cc(C(=O)N[C@H]7CCC(=O)NC7=O)c(F)cc6O5)CC4)CC3)nc2)C(C)(C)[C@H]1Oc1ccc(C#N)c(Cl)c1 ) reads 87

Value of measured Degradation rate of AR protein in VCaP cells for the entry COc1cc(O[C@H]2C(C)(C)[C@H](NC(=O)c3ccc(N4CCC(CN5CCC6(CC5)COc5c6ccc(C(=O)N[C@H]6CCC(=O)NC6=O)c5F)(OC)CC4)cc3)C2(C)C)ccc1C#N : 1

For reference, reported Degradation rate of AR protein in VCaP cells for CC1(C)[C@H](NC(=O)c2ccc(N3CCC(CN4CCC5(CCc6cc(C(=O)N[C@H]7CCC(=O)NC7=O)c(F)cc6O5)CC4)CC3)nc2)C(C)(C)[C@H]1Oc1ccc(C#N)c(C(F)(F)F)c1 stands at 77

Per the records, this compound ( COc1cc(O[C@H]2C(C)(C)[C@H](NC(=O)c3ccc(N4CCC(C)(CN5CC6(CCC7(CC6)COc6c7ccc7c6CN(C6CCC(=O)NC6=O)C7=O)C5)CC4)cc3)C2(C)C)ccc1C#N (relative stereo) ) has Degradation rate of AR protein in VCaP cells equal to 78

Where these numbers come from: patent EP4722219A1
